This listing pairs compounds with measured melting point.

The cases that follow already have their melting point on record.
CCOCc1nc2c(N)nc3cc(-c4cccnc4)ccc3c2n1CCCCS(N)(=O)=O [Example 368] | 250 to 251.5 °C
COCCc1nc2c(N)nc3ccc(-c4csc5ccccc45)cc3c2n1CCCN1CCCC1=O [Example 190] | 202 to 205 °C
CCCc1nc2c(N)nc3cc(/C=C/c4ccc(OC)cc4)ccc3c2n1CC(C)C [Example 444] | 201 to 202 °C
CCCS(=O)(=O)NCCCCn1c(COCC)nc2c(N)nc3cc(-c4cccnc4)ccc3c21 [Example 376] | 178 to 180 °C
CCOCc1nc2c(N)nc3cc(-c4cncc(CO)c4)ccc3c2n1CC1CCCCC1 [Example 439] | 240 to 241 °C

The compound COc1ccc(-c2ccc3nc(N)c4ncn(CC(C)C)c4c3c2)c(OC)c1 [Example 13] showed melting point equal to 223 to 227 °C

The compound CCOCc1nc2c(N)nc3cc(-c4cccc(C(=O)NCC(C)C)c4)ccc3c2n1CCCOC [Example 171] showed melting point equal to 209 to 210 °C

The compound CCOCc1nc2c(N)nc3cc(-c4cccnc4)ccc3c2n1CCCOC [Example 164] showed melting point equal to 151 to 152 °C

The compound CC(C)Cn1cnc2c(N)nc3ccc(-c4ccccc4)cc3c21 [Example 15] showed melting point equal to 203 to 204 °C

The compound CCOCc1nc2c(N)nc3cc(-c4cccnc4)ccc3c2n1CCCCNS(C)(=O)=O (hydrate or solvate) [Example 375] showed melting point equal to 186 to 188 °C

The compound CCOCc1nc2c(N)nc3cc(-c4cccnc4)ccc3c2n1C[C@H](O)CO [Example 490] showed melting point equal to 203 to 204 °C

* * *

readout: melting point

The cases that follow already have their melting point on record.
CCOCc1nc2c(N)nc3cc(-c4cccnc4)ccc3c2n1CCNC(=O)NC(C)C | 194 to 196 °C
COc1ccc(Cc2nc3c(N)nc4cc(-c5ccccc5)ccc4c3n2CCOc2ccccc2)cc1 | 197 to 198 °C
CCOCc1nc2c(N)nc3cc(-c4ccccc4)ccc3c2n1CC1COC(C)(C)O1 (centres unmarked) | 168 to 170 °C
COCc1nc2c(N)nc3cc(-c4ccc(OC)nc4)ccc3c2n1CC(C)(C)O | 190 to 190.5 °C
CCOCc1nc2c(N)nc3cc(-c4ccsc4)ccc3c2n1CC(C)C | 187 to 189 °C
CCCCn1c(COCC)nc2c(N)nc3ccc(-c4ccccc4)cc3c21 | 186 to 187 °C
CCCOc1ccc(-c2cccc3nc(N)c4ncn(CC(C)C)c4c23)cc1 | 181 to 182 °C
COCCc1nc2c(N)nc3cc(-c4cccc(CO)c4)ccc3c2n1CCCN1CCCC1=O (hydrate or solvate) | 184 to 187 °C
CCCc1nc2c(N)nc3cc(-c4cccnc4)ccc3c2n1CCCCNC(=O)C(C)C (hydrate or solvate) | 168 to 170 °C
CCOCc1nc2c(N)nc3cc(-c4ccncc4)ccc3c2n1CC(C)(C)O | 220 to 221 °C

Let us examine a further case.
The molecule CCOCc1nc2c(N)nc3cc(-c4ccc(Cl)cc4)ccc3c2n1CCCOC showed melting point equal to 188 to 190 °C

Values compiled from patent US7598382B2.
